Listed below: melting point values for each entry.

Study these solved cases before continuing.
COc1cc2oc(=O)c(C)c(C)c2cc1OCCCN1CCN(c2cccc3cccnc23)CC1 [Example 5] = 225 to 228 °C
COc1cc2oc(=O)c(C)c(C)c2cc1OCCN1CCN(c2cccc3[nH]ccc23)CC1.Cl.Cl = 231 to 237 °C
COc1cc2oc(=O)c(C)c(C)c2cc1OCCCN1CCN(c2cccc3[nH]ccc23)CC1 [Example 5] = 193 to 195 °C
COc1cc2oc(=O)c(C)c(C)c2cc1OCCN1CCN(c2cccc3[nH]ccc23)CC1 [Example 3] = 201 to 202 °C
COc1cc2oc(=O)c(C)c(C)c2cc1OCCN1CCN(c2cccc3cccnc23)CC1 [Example 4] = 164 to 165 °C

Would you mind telling me what melting point value was observed for COc1cc2oc(=O)c(C)c(C)c2cc1OCCN1CCN(c2cccc3ccc(C)nc23)CC1 [Example 4] ?
168 to 170 °C
